Molecular target: UniProt:P11309
Sequence (P11309 whole entry): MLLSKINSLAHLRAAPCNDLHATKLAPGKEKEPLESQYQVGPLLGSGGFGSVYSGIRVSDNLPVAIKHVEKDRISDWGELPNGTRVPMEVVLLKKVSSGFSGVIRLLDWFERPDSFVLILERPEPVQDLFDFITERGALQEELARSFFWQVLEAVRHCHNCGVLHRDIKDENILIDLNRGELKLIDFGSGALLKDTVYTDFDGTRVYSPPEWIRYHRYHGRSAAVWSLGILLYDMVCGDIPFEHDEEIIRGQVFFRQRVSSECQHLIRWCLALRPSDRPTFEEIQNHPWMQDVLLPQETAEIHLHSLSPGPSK
Test: Measurement of pim-1 kinase inhibitory activity (fluorescent substrate peptide, capillary electrophoresis)
Type: biochemical
Conditions: 0.1 μM of each compound, 30 μM ATP, 1.5 μM substrate peptide, room temperature 2 hours; Table 1
Structures can show the parent of a compound that is named as a salt.
VALUE KIND: inhibition at 0.1 µM (%)

Example compounds with recorded inhibition at 0.1 µM:
# COMPOUND, UOM, inhibition at 0.1 µM
records = [
    ("O=C1CN(Cc2c(O)ccc3c2O/C(=C\\c2c[nH]c4ccccc24)C3=O)CCN1", "%", 81),
    ("Nc1ccc2c(/C=C3\\Oc4c(ccc(O)c4CN4CCNCC4)C3=O)c[nH]c2c1 [Compound A25, trihydrochloride]", "%", 83),
    ("O=C1/C(=C/c2c[nH]c3ccccc23)Oc2c1ccc(O)c2CN1CCNCC1", "%", 87),
]

(1) COc1cc(CN2CCNCC2)c2c(c1)C(=O)/C(=C/c1c[nH]c3ccccc13)O2 [Compound A14, dihydrochloride]
(2) CN1CCN(Cc2c(O)ccc3c2O/C(=C\c2c[nH]c4ncccc24)C3=O)CC1
Lookup: Form field 'greater inhibition at 0.1 µM' accepts 1 or 2 ; which applies? Please indicate the selected item by its label.
Found: 1
(1: 87%, 2: 56%)
